- Experiment summary: log p (partition coefficient octanol/water, determined experimentally from reversed phase HPLC)
- Assay type: physicochemical
- Experimental context: reversed phase hplc, A isomer
Readout type: chromatographic logP

[[record]]
compound = "CCON=C(COc1ccc(-c2ccc(C3COC(c4c(F)cccc4F)=N3)cc2)cc1)c1cccc(C(F)(F)F)c1 (stereo not shown)"
readout_type = "chromatographic logP"
numeric_value = 6.18

[[record]]
compound = "CCON=C(COc1ccc(-c2ccc(C3COC(c4c(F)cccc4F)=N3)cc2)cc1)c1ccc(Cl)cc1 (stereo not shown)"
readout_type = "chromatographic logP"
numeric_value = 5.61

[[record]]
compound = "CC(=NO)C(C)Oc1ccc(-c2ccc(C3COC(c4c(F)cccc4F)=N3)cc2)cc1 (stereo not shown)"
readout_type = "chromatographic logP"
numeric_value = 3.48

[[record]]
compound = "CC(COc1ccc(-c2ccc(C3COC(c4c(F)cccc4Cl)=N3)cc2)cc1)=NOCc1ccccc1 (stereo not shown)"
readout_type = "chromatographic logP"
numeric_value = 5.45

[[record]]
compound = "CCON=C(COc1ccc(-c2ccc(C3COC(c4c(F)cccc4F)=N3)cc2)cc1)c1ccc(Br)cc1 (stereo not shown)"
readout_type = "chromatographic logP"
numeric_value = 5.65

[[record]]
compound = "CCON=C(COc1ccc(-c2ccc(C3COC(c4c(F)cccc4F)=N3)cc2)cc1)c1cc(Cl)ccc1Cl (stereo not shown)"
readout_type = "chromatographic logP"
numeric_value = 6

[[record]]
compound = "CC(COc1ccc(-c2ccc(C3COC(c4ccccc4Cl)=N3)cc2)cc1)=NOC(C)C (stereo not shown)"
readout_type = "chromatographic logP"
numeric_value = 5.53

[[record]]
compound = "CON=C(COc1ccc(-c2ccc(C3COC(c4c(F)cccc4F)=N3)cc2)cc1)C1CC1 (stereo not shown)"
readout_type = "chromatographic logP"
numeric_value = 4.9

[[record]]
compound = "C=CCON=C(C)COc1ccc(-c2ccc(C3COC(c4c(F)cccc4F)=N3)cc2)cc1 (stereo not shown)"
readout_type = "chromatographic logP"
numeric_value = 4.78

[[record]]
compound = "C=CCON=C(C)C(C)Oc1ccc(-c2ccc(C3COC(c4c(F)cccc4F)=N3)cc2)cc1Cl (stereo not shown)"
readout_type = "chromatographic logP"
numeric_value = 5.49

[[record]]
compound = "CC(COc1ccc(-c2ccc(C3COC(c4ccccc4Cl)=N3)cc2)cc1)=NOCc1ccccc1 (stereo not shown)"
readout_type = "chromatographic logP"
numeric_value = 5.55

[[record]]
compound = "CCON=C(C)C(C)Oc1ccc(-c2ccc(C3COC(c4c(F)cccc4Cl)=N3)cc2)cc1 (stereo not shown)"
readout_type = "chromatographic logP"
numeric_value = 5.31

[[record]]
compound = "CC(=NOC(C)C)C(C)Oc1ccc(-c2ccc(C3COC(c4ccccc4Cl)=N3)cc2)cc1 (stereo not shown)"
readout_type = "chromatographic logP"
numeric_value = 5.88

[[record]]
compound = "C=CCON=C(C)C(C)Oc1ccc(-c2ccc(C3COC(c4c(F)cccc4Cl)=N3)cc2)cc1 (stereo not shown)"
readout_type = "chromatographic logP"
numeric_value = 5.7

[[record]]
compound = "CCON=C(C)C(C)Oc1ccc(-c2ccc(C3COC(c4ccccc4Cl)=N3)cc2)cc1Cl (stereo not shown)"
readout_type = "chromatographic logP"
numeric_value = 5.83

[[record]]
compound = "CON=C(C)C(C)Oc1ccc(-c2ccc(C3COC(c4c(F)cccc4F)=N3)cc2)cc1 (stereo not shown)"
readout_type = "chromatographic logP"
numeric_value = 4.62

